# target.desc: human sodium channels Nav 1.8 (Homo sapiens)
# protocol.description: Automated whole-cell voltage-clamp (ScreenPatch 384P) sodium current block, Nav 1.8
# measurement.conditions: CHO cells stably expressing human Nav 1.8; holding -100 mV, inactivation step -40 mV for 8 seconds, test step 10 mV (TP1A); exposure at least five minutes, room temperature; mean where tested in two or more assays; read-out: Nav1.8 IC50
# Method: Biological assays were performed on Chinese hamster ovary (CHO) cells that express human sodium channels Nav 1.8 or Nav 1.7 in a stable manner. The experimental protocol voltage-clamp using the whole cell configuration was established on the automated ScreenPatch® 384P platform (SP384PE, Nanion Technologies, Livingston, NJ) and the results were recorded with a Nanion 384-well Patch Clamp chip (NPC) (Nanion Technologies, Livingston, NJ). […]
pIC50: −log10 of the molar value.
Reported pIC50 values for a set of compounds

Below, 2 compounds whose answers are already recorded.
                                   compound                               target_desc  measured_quantity        result
0  CCOc1ccc(-c2cncc(C(=O)NCCc3cc(OC)cnc3F)n2)cn1  human sodium channels Nav 1.8 (Homo sapiens)              pIC50        > 6.30
1  COc1cc(CCNC(=O)c2cncc(-c3ccc(OC(C)C)cc3)n2)cc(OC)c1  human sodium channels Nav 1.8 (Homo sapiens)              pIC50  6.00 to 6.30

In: For the record `CCOc1ccc(-c2cncc(C(=O)Nc3cn4c(OC)ccc(F)c4n3)n2)cn1` , what value of pIC50 is listed for human sodium channels Nav 1.8 (Homo sapiens)?
Out: < 6.00

In: Also need `CCOc1ccc(-c2cncc(C(=O)Nc3cc4c(OC)ccc(F)c4n3C)n2)cn1` , thanks.
Out: < 6.00

In: Item: `COc1cnc(F)c(CCNC(=O)c2cncc(-c3ccc(OC(F)F)cc3)n2)c1`
Out: < 6.00

---

Measured pIC50 values are reported for all entries that follow.
# target.desc: human sodium channels Nav 1.8 (Homo sapiens)
# protocol.description: Automated whole-cell voltage-clamp (ScreenPatch 384P) sodium current block, Nav 1.8
# measurement.conditions: CHO cells stably expressing human Nav 1.8; holding -100 mV, inactivation step -40 mV for 8 seconds, test step 10 mV (TP1A); exposure at least five minutes, room temperature; mean where tested in two or more assays; read-out: Nav1.8 IC50
pIC50: −log10 of the molar value.

>>> print(df.to_string())
                                   compound                               target_desc  measured_quantity  result
0  CCOc1ccc(-c2cncc(C(=O)Nc3nc4c(F)ccc(OC)c4s3)n2)cn1  human sodium channels Nav 1.8 (Homo sapiens)              pIC50  < 6.00
1  CCOc1ccc(-c2cncc(C(=O)NC[C@@H](N)c3cc(OC)cc(OC)c3)n2)cc1  human sodium channels Nav 1.8 (Homo sapiens)              pIC50  > 6.30
2  CCOc1ccc(-c2cncc(C(=O)N[C@H]3CCc4c(OC)ccc(F)c4C3)n2)cn1  human sodium channels Nav 1.8 (Homo sapiens)              pIC50  > 6.30

In: Short answer please: pIC50, human sodium channels Nav 1.8 (Homo sapiens), entry `COc1ccc(-c2cncc(C(=O)NCCc3cc(OC)cnc3F)n2)cc1`
Out: > 6.30

In: Quick one: `CCOc1ccc(-c2cc(C(=O)NCCc3cc(OC)cnc3F)cnn2)cc1`
Out: < 6.00

In: Next compound up: `COc1ccc(-c2cncc(C(=O)NC[C@@H](O)c3cc(OC)cc(OC)c3)n2)cc1`
Out: > 6.30

In: Would you kindly repeat that for `CCOc1ccc(-c2cncc(C(=O)Nc3cc4c(F)ccc(OC)c4[nH]3)n2)cc1` ?
Out: < 6.00

In: Param item: `CCOc1ccc(-c2ccnc(C(=O)NCCc3cc(OC)cnc3F)n2)cc1`
Out: 6.00 to 6.30

In: And then `CCOc1ccc(-c2cncc(C(=O)NCCc3cc(OC)cc(OC)c3)n2)c(C)c1` , what is it?
Out: > 6.30

---

# target.desc: human sodium channels Nav 1.8 (Homo sapiens, UniProt Q9Y5Y9)
# Construct: expressed in transfected cells
# Sequence (Q9Y5Y9 whole entry): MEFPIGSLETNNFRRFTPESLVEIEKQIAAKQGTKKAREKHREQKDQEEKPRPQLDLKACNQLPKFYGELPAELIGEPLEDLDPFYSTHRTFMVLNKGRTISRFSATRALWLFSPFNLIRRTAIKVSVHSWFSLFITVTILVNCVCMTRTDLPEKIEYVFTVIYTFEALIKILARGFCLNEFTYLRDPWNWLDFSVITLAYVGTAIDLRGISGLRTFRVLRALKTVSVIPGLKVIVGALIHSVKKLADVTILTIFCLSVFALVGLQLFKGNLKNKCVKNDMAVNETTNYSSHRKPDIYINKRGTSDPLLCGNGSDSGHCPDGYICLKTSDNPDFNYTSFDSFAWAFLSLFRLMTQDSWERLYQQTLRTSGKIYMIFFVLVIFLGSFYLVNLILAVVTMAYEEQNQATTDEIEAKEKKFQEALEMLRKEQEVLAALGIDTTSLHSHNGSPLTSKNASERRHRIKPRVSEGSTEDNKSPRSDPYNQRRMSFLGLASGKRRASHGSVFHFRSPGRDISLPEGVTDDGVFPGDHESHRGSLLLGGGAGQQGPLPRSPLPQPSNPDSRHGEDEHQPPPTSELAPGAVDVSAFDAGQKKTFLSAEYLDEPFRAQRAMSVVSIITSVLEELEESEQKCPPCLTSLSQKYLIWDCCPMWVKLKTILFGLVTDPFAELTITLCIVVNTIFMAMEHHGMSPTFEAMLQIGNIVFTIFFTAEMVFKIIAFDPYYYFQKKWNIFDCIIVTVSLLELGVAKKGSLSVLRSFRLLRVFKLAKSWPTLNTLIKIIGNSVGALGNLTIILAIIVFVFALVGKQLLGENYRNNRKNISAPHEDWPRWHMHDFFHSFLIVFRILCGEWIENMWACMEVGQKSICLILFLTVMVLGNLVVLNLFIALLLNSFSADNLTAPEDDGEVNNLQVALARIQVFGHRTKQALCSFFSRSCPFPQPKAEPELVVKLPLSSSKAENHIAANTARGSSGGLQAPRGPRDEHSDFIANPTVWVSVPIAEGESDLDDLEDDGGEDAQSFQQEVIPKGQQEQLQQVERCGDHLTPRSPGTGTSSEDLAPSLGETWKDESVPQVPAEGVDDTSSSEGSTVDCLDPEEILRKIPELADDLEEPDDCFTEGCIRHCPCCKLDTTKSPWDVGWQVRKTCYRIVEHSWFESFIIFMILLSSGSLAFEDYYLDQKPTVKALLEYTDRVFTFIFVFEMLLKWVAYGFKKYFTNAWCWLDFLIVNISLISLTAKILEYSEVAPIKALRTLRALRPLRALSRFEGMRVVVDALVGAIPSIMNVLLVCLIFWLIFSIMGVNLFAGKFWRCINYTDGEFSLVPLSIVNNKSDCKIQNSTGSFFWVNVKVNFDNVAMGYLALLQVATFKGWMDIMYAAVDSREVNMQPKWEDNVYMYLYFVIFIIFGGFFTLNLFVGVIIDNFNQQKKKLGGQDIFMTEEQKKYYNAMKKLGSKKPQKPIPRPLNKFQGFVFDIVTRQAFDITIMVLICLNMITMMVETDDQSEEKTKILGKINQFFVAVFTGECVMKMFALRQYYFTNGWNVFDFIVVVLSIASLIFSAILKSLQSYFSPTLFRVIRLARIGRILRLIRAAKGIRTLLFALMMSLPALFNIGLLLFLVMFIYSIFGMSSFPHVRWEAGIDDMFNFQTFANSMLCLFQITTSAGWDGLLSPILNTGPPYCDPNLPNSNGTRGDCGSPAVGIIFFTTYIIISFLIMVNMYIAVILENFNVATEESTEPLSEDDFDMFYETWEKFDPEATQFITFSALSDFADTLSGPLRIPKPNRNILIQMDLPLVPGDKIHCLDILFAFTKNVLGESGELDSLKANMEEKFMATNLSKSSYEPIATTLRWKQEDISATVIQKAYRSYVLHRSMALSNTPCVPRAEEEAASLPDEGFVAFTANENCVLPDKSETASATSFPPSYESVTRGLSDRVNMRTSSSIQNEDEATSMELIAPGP
# protocol.description: Automated whole-cell voltage-clamp (ScreenPatch 384P) sodium current block, Nav 1.8
# Format: cell-based
# measurement.conditions: CHO cells stably expressing human Nav 1.8; holding -100 mV, inactivation step -40 mV for 8 seconds, test step 10 mV (TP1A); exposure at least five minutes, room temperature; mean where tested in two or more assays; read-out: Nav1.8 IC50
measured.quantity: IC50

These recorded examples may help you get a feel for the data.
                                   molecule     result
0  CCOc1ccc(-c2cncc(C(=O)NCCc3cccc(OC)c3)n2)cc1 [compound 5]   < 500 nM
1  CCOc1ccc(-c2cncc(C(=O)NCCc3cc(OC)ccc3F)n2)cc1 [compound 17]   < 500 nM
2  CCOc1ccc(-c2cccc(C(=O)NCCc3cc(OC)cnc3F)n2)cn1 [compound 108]  > 1000 nM
3  CCOc1ccc(-c2cncc(C(=O)NCCc3cc(C(C)O)ccc3F)n2)cc1 (stereo not drawn) [compound 15]   < 500 nM

In: Recorded IC50 of CCOc1ccc(-c2cncc(C(=O)NCCc3cc(OC)cc(OC)c3)n2)cn1 [compound 44] , please.
Out: > 1000 nM

---

# target.desc: human sodium channels Nav 1.7 (Homo sapiens, UniProt Q15858)
# Sequence (Q15858 whole entry): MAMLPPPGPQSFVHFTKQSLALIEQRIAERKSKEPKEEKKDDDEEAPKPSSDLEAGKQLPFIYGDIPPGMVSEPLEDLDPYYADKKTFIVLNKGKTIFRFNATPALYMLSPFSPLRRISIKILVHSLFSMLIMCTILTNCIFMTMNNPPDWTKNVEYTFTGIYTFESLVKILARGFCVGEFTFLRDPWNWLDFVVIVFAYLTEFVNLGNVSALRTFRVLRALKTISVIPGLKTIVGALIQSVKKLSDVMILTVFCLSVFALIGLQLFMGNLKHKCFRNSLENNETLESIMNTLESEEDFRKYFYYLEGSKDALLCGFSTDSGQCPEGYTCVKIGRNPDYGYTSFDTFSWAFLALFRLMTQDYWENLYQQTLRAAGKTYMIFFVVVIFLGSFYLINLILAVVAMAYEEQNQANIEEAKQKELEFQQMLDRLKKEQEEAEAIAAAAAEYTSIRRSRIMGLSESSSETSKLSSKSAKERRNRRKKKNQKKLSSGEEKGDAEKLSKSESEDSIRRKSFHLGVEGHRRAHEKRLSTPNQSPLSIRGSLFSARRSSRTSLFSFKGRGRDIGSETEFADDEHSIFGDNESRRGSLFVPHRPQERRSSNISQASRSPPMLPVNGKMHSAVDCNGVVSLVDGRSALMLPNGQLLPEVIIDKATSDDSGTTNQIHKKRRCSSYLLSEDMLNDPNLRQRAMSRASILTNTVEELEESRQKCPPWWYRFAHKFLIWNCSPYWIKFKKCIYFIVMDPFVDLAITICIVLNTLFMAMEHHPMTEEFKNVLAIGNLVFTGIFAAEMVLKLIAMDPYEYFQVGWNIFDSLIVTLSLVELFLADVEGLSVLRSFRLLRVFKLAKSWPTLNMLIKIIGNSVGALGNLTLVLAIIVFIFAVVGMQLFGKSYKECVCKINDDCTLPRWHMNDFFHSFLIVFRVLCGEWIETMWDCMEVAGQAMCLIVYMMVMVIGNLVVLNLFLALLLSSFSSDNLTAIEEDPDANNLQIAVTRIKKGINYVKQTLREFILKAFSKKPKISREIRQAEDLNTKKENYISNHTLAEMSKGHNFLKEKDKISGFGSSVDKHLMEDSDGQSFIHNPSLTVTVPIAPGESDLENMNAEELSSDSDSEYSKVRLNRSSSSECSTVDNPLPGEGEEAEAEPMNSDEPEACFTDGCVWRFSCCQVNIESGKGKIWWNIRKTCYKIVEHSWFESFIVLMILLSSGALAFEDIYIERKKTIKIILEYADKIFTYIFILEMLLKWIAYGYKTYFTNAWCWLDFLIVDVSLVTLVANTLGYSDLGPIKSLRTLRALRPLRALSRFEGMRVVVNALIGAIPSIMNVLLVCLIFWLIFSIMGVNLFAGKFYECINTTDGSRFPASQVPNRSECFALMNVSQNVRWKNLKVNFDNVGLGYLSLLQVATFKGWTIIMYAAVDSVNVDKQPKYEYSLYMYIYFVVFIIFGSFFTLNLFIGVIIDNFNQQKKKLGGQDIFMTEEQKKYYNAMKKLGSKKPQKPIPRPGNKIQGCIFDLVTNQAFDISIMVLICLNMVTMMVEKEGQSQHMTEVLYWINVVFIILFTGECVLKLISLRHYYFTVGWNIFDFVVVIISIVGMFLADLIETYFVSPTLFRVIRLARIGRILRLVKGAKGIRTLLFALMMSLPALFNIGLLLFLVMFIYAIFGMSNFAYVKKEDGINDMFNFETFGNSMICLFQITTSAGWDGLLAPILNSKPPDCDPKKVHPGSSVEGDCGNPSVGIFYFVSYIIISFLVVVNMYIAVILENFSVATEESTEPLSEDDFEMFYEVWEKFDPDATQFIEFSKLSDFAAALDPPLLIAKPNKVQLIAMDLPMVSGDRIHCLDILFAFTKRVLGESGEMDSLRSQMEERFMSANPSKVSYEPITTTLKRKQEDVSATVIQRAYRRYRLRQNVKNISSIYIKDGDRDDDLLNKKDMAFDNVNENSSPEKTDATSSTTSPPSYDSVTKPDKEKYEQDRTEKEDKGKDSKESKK
# protocol.description: Automated whole-cell voltage-clamp (ScreenPatch 384P) sodium current block, Nav 1.7
# measurement.conditions: CHO cells stably expressing human Nav 1.7; holding -100 mV, inactivation step -40 mV for 8 seconds, test step 0 mV (TP1A); exposure at least five minutes, room temperature; mean where tested in two or more assays; read-out: Nav1.7 IC50
measured.quantity: IC50

In [3]: df
Out[3]:
                                   compound                               target_desc  measured_quantity          result
0  CCOc1ccc(-c2cncc(C(=O)NCCc3cc(OC)cc(C(C)O)c3)n2)cn1 (centres unmarked)  human sodium channels Nav 1.7 (Homo sapiens, UniProt Q15858)               IC50       > 1000 nM
1  CCOc1ccc(-c2cncc(C(=O)Nc3nc4c(OC)ccc(F)c4n3C)n2)cn1  human sodium channels Nav 1.7 (Homo sapiens, UniProt Q15858)               IC50       > 1000 nM
2  COc1cc(OC)cc([C@H](O)CNC(=O)c2cncc(-c3ccc(OC(F)F)cc3)n2)c1  human sodium channels Nav 1.7 (Homo sapiens, UniProt Q15858)               IC50       > 1000 nM
3  O=C(NCCc1ccccc1F)c1cncc(-c2ccc(OC(F)F)nc2)n1  human sodium channels Nav 1.7 (Homo sapiens, UniProt Q15858)               IC50       > 1000 nM
4  COc1ccc(-c2cncc(C(=O)NCCc3cc(OC)cnc3F)n2)cc1  human sodium channels Nav 1.7 (Homo sapiens, UniProt Q15858)               IC50       > 1000 nM
5  COc1cnc(F)c(CCNC(=O)c2cncc(-c3ccc(OC)nc3)n2)c1  human sodium channels Nav 1.7 (Homo sapiens, UniProt Q15858)               IC50  500 to 1000 nM
6  CCOc1ccc(-c2cncc(C(=O)Nc3cc4c(OC)ccc(F)c4[nH]3)n2)cn1  human sodium channels Nav 1.7 (Homo sapiens, UniProt Q15858)               IC50  500 to 1000 nM
7  CCOc1ccc(-c2cncc(C(=O)N[C@H]3Cc4c(F)ccc(OC)c4C3)n2)cn1  human sodium channels Nav 1.7 (Homo sapiens, UniProt Q15858)               IC50       > 1000 nM
8  CCOc1ccc(-c2cncc(C(=O)NCCc3cccc(OC)c3)n2)cn1  human sodium channels Nav 1.7 (Homo sapiens, UniProt Q15858)               IC50  500 to 1000 nM
9  CCOc1ccc(-c2cncc(C(=O)N[C@H]3CCc4c(OC)ccc(F)c4C3)n2)cn1  human sodium channels Nav 1.7 (Homo sapiens, UniProt Q15858)               IC50       > 1000 nM

In: Requested field: IC50. Item: `[2H]C([2H])([2H])Oc1ccc(-c2cncc(C(=O)NCCc3cc(OC)cnc3F)n2)cn1`
Out: > 1000 nM

In: Try this compound too: `[2H]C([2H])([2H])Oc1ccc(-c2cncc(C(=O)NCCc3cc(OC)cnc3F)n2)cc1`
Out: > 1000 nM

In: Check CCOc1ccc(-c2cncc(C(=O)NCCc3cc(C(C)O)ccc3F)n2)cc1 (centres unmarked) too.
Out: > 1000 nM

In: Do the same for CCOc1ccc(-c2cncc(C(=O)NCCc3cccc(C(C)O)c3)n2)cn1 (centres unmarked) please
Out: > 1000 nM

In: Note, next up: `CCOc1ccc(-c2cncc(C(=O)Nc3nc4c(F)ccc(OC)c4o3)n2)cn1`
Out: > 1000 nM

In: Lookup `CCOc1ccc(-c2nccc(C(=O)NCCc3cc(OC)cnc3F)n2)cn1`
Out: > 1000 nM

In: Same question, CCOc1ccc(-c2cncc(C(=O)NCCc3cc(C(C)O)cnc3F)n2)cc1 (centres unmarked) this time
Out: > 1000 nM

Reference source for all entries: patent EP4660185A1
